# Test system: ATP;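 further: ATP exposure 15 min at 22 °C before imaging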
# test_protocol: switch fluorescence ratio, 500 uM ATP over buffer (Cy3 cluster intensity, sum of 5 cycles each) (fold (ratio)); higher = stronger signal-on switching upon ATP binding; sequences stand for … in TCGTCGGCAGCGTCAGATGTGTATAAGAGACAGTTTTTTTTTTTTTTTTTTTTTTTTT…TC
# condition_info: aptamer strand: ATP DNA aptamer (quencher-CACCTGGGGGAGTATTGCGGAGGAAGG + anchor), 100 nM annealed; ATP concentration: 500 uM
observed_property: switch fluorescence ratio

Prompt line: Provide value of switch fluorescence ratio for this record tested with ATP: TTAATTTCGG
Response line: 0.991

----------
# Tested on: ATP;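 further: ATP exposure 15 min at 22 °C before imaging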
# test_protocol: switch fluorescence ratio, 500 uM ATP over buffer (Cy3 cluster intensity, sum of 5 cycles each) (fold (ratio)); higher = stronger signal-on switching upon ATP binding; sequences stand for … in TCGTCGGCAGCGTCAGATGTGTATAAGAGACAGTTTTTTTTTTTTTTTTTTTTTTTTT…TC
# condition_info: aptamer strand: ATP DNA aptamer (quencher-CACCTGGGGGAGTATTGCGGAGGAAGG + anchor), 100 nM annealed; ATP concentration: 500 uM
Recorded switch fluorescence ratio for the following sequences
Lab note: jot down the number only; don't add units.

// solved cases for switch fluorescence ratio follow
# sequence, observed_property, number
data = [
    ("GTTAGGCCCT", "switch fluorescence ratio", 1),
    ("GGGCCCTAAT", "switch fluorescence ratio", 0.982),
    ("AAGGCTTAGT", "switch fluorescence ratio", 1.01),
]

Prompt line: What does the data say about its switch fluorescence ratio? Entry: TGGCGGTGGC
Response line: 0.981

Prompt line: What does the data say about its switch fluorescence ratio? Entry: AAGCTGTGCA
Response line: 0.99

Prompt line: What does the data say about its switch fluorescence ratio? Entry: AACCTGCGGA
Response line: 1.02

Prompt line: What does the data say about its switch fluorescence ratio? Entry: GGAGGAGGCA
Response line: 0.997

Prompt line: What does the data say about its switch fluorescence ratio? Entry: GACAGTTGGG
Response line: 0.999

Prompt line: What does the data say about its switch fluorescence ratio? Entry: CGATGAGTAA
Response line: 1

Prompt line: What does the data say about its switch fluorescence ratio? Entry: CAAAAGTTGT
Response line: 0.992

Prompt line: What does the data say about its switch fluorescence ratio? Entry: AAGTTTTGTA
Response line: 0.985

Prompt line: What does the data say about its switch fluorescence ratio? Entry: GGATTGTATT
Response line: 1.02

Prompt line: What does the data say about its switch fluorescence ratio? Entry: TACTGTGGGG
Response line: 1.01

Prompt line: What does the data say about its switch fluorescence ratio? Entry: TTACTATTCT
Response line: 1

Prompt line: What does the data say about its switch fluorescence ratio? Entry: TTAAGATAGG
Response line: 1.01

Prompt line: What does the data say about its switch fluorescence ratio? Entry: GGGGGCGGCA
Response line: 0.988

Prompt line: What does the data say about its switch fluorescence ratio? Entry: CATTTTTGAA
Response line: 1.01

Prompt line: What does the data say about its switch fluorescence ratio? Entry: GAGGGGAATT
Response line: 0.983

Prompt line: What does the data say about its switch fluorescence ratio? Entry: TAATTAGGGA
Response line: 0.986

Prompt line: What does the data say about its switch fluorescence ratio? Entry: GCTTCGGAGG
Response line: 1.02

Prompt line: What does the data say about its switch fluorescence ratio? Entry: CTAGGGGGTT
Response line: 1

Prompt line: What does the data say about its switch fluorescence ratio? Entry: TGAGAGGAGG
Response line: 1

Prompt line: What does the data say about its switch fluorescence ratio? Entry: GTCTGAGGGG
Response line: 0.997

Prompt line: What does the data say about its switch fluorescence ratio? Entry: GGTCGGGGAT
Response line: 1.01

Prompt line: What does the data say about its switch fluorescence ratio? Entry: GTGAGGGATA
Response line: 0.984

Prompt line: What does the data say about its switch fluorescence ratio? Entry: GAAGTGGGAT
Response line: 0.984

Prompt line: What does the data say about its switch fluorescence ratio? Entry: GAGAGAATTT
Response line: 1

----------
Recorded switch fluorescence ratio for the following sequences
# Tested on: ATP;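 further: ATP exposure 15 min at 22 °C before imaging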
# test_protocol: switch fluorescence ratio, 500 uM ATP over buffer (Cy3 cluster intensity, sum of 5 cycles each) (fold (ratio)); higher = stronger signal-on switching upon ATP binding; sequences stand for … in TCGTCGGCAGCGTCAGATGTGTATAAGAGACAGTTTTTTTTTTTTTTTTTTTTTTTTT…TC
# condition_info: aptamer strand: ATP DNA aptamer (quencher-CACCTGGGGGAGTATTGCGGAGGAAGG + anchor), 100 nM annealed; ATP concentration: 500 uM
Lab note: jot down the number only; don't add units.

# sequence, number
records = [
    ("GAGGGGTCCT", 1.24),
    ("TTGTTTTAAT", 0.999),
    ("TTCAGGCCGT", 1.02),
    ("AGTGCCGTAA", 1.02),
    ("TCAAAAAAAT", 1.02),
    ("ATAACGTTCG", 1.06),
]

Prompt line: What does the data say about its switch fluorescence ratio? Entry: CAATCGTAAA
Response line: 1.01

Prompt line: What does the data say about its switch fluorescence ratio? Entry: AAGAAAAATT
Response line: 0.973

Prompt line: What does the data say about its switch fluorescence ratio? Entry: AGGGGATAGG
Response line: 0.98

Prompt line: What does the data say about its switch fluorescence ratio? Entry: TGTCGGCTGG
Response line: 1.02

Prompt line: What does the data say about its switch fluorescence ratio? Entry: GAGGCCGGGG
Response line: 0.996

Prompt line: What does the data say about its switch fluorescence ratio? Entry: TTTCTAAGAA
Response line: 1.01

Prompt line: What does the data say about its switch fluorescence ratio? Entry: ATAGGGGCGG
Response line: 0.978

Prompt line: What does the data say about its switch fluorescence ratio? Entry: ATTTCTTGG
Response line: 0.958

Prompt line: What does the data say about its switch fluorescence ratio? Entry: GCGGCTGG
Response line: 0.963

Prompt line: What does the data say about its switch fluorescence ratio? Entry: TTACTATTTT
Response line: 1.03

Prompt line: What does the data say about its switch fluorescence ratio? Entry: CGGACACGAA
Response line: 0.981

Prompt line: What does the data say about its switch fluorescence ratio? Entry: GTTTTGGTGG
Response line: 0.998

Prompt line: What does the data say about its switch fluorescence ratio? Entry: TGTGTTTTTG
Response line: 1.01

----------
Recorded switch fluorescence ratio for the following sequences
# Tested on: ATP;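 further: ATP exposure 15 min at 22 °C before imaging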
# test_protocol: switch fluorescence ratio, 500 uM ATP over buffer (Cy3 cluster intensity, sum of 5 cycles each) (fold (ratio)); higher = stronger signal-on switching upon ATP binding; sequences stand for … in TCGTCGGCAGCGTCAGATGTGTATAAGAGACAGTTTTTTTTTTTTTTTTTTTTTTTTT…TC
# condition_info: aptamer strand: ATP DNA aptamer (quencher-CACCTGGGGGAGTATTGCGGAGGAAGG + anchor), 100 nM annealed; ATP concentration: 500 uM
Lab note: jot down the number only; don't add units.

// solved cases for switch fluorescence ratio follow
# sequence, observed_property, number
measured = [
    ("TTAGACATTA", "switch fluorescence ratio", 1.02),
    ("GGTGTTCATG", "switch fluorescence ratio", 0.974),
    ("GCACGCGGGG", "switch fluorescence ratio", 1.01),
    ("GGGCATGTAG", "switch fluorescence ratio", 0.996),
    ("TCCGGCTGAG", "switch fluorescence ratio", 1.02),
]

Now look at this entry.
Prompt line: What does the data say about its switch fluorescence ratio? Entry: TCCTAGAAC
Response line: 0.997

----------
# System: ATP;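 further: ATP exposure 15 min at 22 °C before imaging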
# test_protocol: switch fluorescence ratio, 500 uM ATP over buffer (Cy3 cluster intensity, sum of 5 cycles each) (fold (ratio)); higher = stronger signal-on switching upon ATP binding; sequences stand for … in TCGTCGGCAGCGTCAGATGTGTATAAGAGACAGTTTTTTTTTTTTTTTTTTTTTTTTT…TC
# condition_info: aptamer strand: ATP DNA aptamer (quencher-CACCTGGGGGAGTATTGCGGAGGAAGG + anchor), 100 nM annealed; ATP concentration: 500 uM
Outcome label depends on switch fluorescence ratio relative to 1: at/above gives yes, below gives no.

Past entries and their recorded results:
# sequence, class_assignment
rows = [
    ("ATTGTGTTCC", "yes"),
    ("CTCTTGTATC", "yes"),
]

Prompt line: Quick check, switch fluorescence ratio >= 1? GTTAATGTCG
Response line: yes

Prompt line: Quick check, switch fluorescence ratio >= 1? AACTTCCGCA
Response line: yes

Prompt line: Quick check, switch fluorescence ratio >= 1? ACTGTGTACC
Response line: yes

Prompt line: Quick check, switch fluorescence ratio >= 1? TCAGCATGTC
Response line: yes

Prompt line: Quick check, switch fluorescence ratio >= 1? ACTAGAACAT
Response line: yes

Prompt line: Quick check, switch fluorescence ratio >= 1? GGGGGGACGG
Response line: no

Prompt line: Quick check, switch fluorescence ratio >= 1? TTAATAAAAT
Response line: no

Prompt line: Quick check, switch fluorescence ratio >= 1? TCATCAGCAG
Response line: yes
